Assay details: protein stability index of a GFP-peptide fusion (yeast GPS) (PSI 1-4); higher = more stable; sorted into four equal gates, so the index is relative within each strain
Particulars: ubr1∆
For each record, write down the corresponding protein stability index.
A bare number is all that is needed in reply.

Query: Item LMCLSSKYCEKSLPLLI [YCS4] has what recorded protein stability index?
Result: 2.39

Query: Please answer likewise for KVIKVLGRTGSRGGVTQ [RPS28A]
Result: 3.12

Query: Please answer likewise for MQSTSPAVKQWDLLPEP [SWI1]
Result: 1.07

Query: Please answer likewise for RNVNWIERLTKRQFNNS [ITC1]
Result: 3.41

Query: Please answer likewise for KSKREEEAKSVLPAATK [ARP9]
Result: 1.21

Query: Please answer likewise for SEGEQKSAEGNNIDQSL [YAR002W/NUP60]
Result: 3.05

Sourced from the supplement of paper PMC9732359
